- Target or test system: T1, Extracellular domain (ECD) of the canine IL-4 receptor alpha-V5 epitope-AviTag-His Tag (canine)
- T1 construct: monomeric form isolated by size exclusion; also called canine IL-4RA-V5-Avi-His; canine IL-4RA
- T1 chain: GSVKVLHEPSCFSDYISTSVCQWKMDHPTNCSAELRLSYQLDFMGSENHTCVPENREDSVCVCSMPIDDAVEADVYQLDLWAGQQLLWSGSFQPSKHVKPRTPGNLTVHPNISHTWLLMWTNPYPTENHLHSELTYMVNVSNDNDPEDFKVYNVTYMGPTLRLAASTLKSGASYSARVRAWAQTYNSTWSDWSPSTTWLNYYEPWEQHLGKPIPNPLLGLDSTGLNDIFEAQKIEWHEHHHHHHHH
- Method description: SPR, Fab-SASA captured on BSA;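 also: biacore T200 SPR, Fab-SASA variants from E. coli conditioned medium captured on BSA-coated CM5 chip, canine IL-4RA injected 120 s then 420 s dissociation, 1:1 model fit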
Readout: koff

TB640_005 Fab-SASA VH-Y110R (Fab, V domains shown, not shown: SASA tag then His-tag) VH: EVQLVESGGDLVKPGGSLRLSCVASGFTFRDYAMTWVRQAPGKGLQWVSLISGSGGKTYYADAVKGRFTISRDNAKNTLYLQMNSLRAEDTAVYYCAVDRLTKTIRPQYRGLWVWGQGTLVTVSS VL: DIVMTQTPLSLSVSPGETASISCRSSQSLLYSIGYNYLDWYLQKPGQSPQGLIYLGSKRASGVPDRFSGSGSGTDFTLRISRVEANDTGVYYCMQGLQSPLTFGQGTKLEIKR	0.00153 s⁻¹
TB640_005 Fab-SASA VL-Q27T (Fab, V domains shown, not shown: SASA tag then His-tag) VH: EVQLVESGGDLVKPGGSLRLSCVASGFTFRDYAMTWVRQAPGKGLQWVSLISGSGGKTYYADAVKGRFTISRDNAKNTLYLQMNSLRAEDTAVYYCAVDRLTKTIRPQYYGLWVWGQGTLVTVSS VL: DIVMTQTPLSLSVSPGETASISCRSSTSLLYSIGYNYLDWYLQKPGQSPQGLIYLGSKRASGVPDRFSGSGSGTDFTLRISRVEANDTGVYYCMQGLQSPLTFGQGTKLEIKR	0.00111 s⁻¹
